Reported Raw data [w/o Enzym] values for a set of compounds
Molecular target: Rlig1-AMP (Homo sapiens)
Construct: made in house; host or cells: E. coli BL21 (DE3), pET15b-Rlig1
Sequence (Q8N999 whole entry): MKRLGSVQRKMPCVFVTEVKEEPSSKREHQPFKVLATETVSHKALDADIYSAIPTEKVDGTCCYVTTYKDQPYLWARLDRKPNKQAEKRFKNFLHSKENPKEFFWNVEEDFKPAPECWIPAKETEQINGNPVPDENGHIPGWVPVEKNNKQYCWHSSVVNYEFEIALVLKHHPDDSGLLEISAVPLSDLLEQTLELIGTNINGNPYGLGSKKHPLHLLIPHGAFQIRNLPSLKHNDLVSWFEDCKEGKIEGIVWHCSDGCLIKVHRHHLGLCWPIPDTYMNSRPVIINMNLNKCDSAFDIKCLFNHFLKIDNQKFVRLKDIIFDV
Test: FRET-based high-throughput screening of inhibitors for Rlig1-AMP
Type: biochemical
Conditions: HTS hits; without enzyme

- compound: "COc1cccc2c1C(=O)c1c(O)c3c(c(O)c1C2=O)C[C@@](O)(C(=O)CO)C[C@@H]3O[C@H]1C[C@H](N)[C@H](O[C@@H]2CCCCO2)[C@H](C)O1.Cl [Pirarubicin (Hydrochloride)]"
  Raw data [w/o Enzym]: 3258
- compound: "Cl.Cl.O=C1c2c(O)ccc(O)c2C(=O)c2c(NCCNCCO)ccc(NCCNCCO)c21 [Mitoxantrone (dihydrochloride)]"
  Raw data [w/o Enzym]: 3030
- compound: "O=C(NCCCCCCCCCC[P+](c1ccccc1)(c1ccccc1)c1ccccc1)c1nn(Cc2ccc(Cl)cc2Cl)c2ccccc12.[Br-] [Mito-LND]"
  Raw data [w/o Enzym]: 4259
- compound: "O=C(O)c1cc(O)c2c(c1)[C@H]([C@H]1c3cc(C(=O)O)cc(O)c3C(=O)c3c(O[C@@H]4O[C@H](CO)[C@@H](O)[C@H](O)[C@H]4O)cccc31)c1cccc(O[C@@H]3O[C@H](CO)[C@@H](O)[C@H](O)[C@H]3O)c1C2=O [Sennoside A]"
  Raw data [w/o Enzym]: 6178
- compound: "CCCCC(=O)OCC(=O)[C@]1(O)Cc2c(O)c3c(c(O)c2[C@@H](O[C@H]2C[C@H](NC(=O)C(F)(F)F)[C@H](O)[C@H](C)O2)C1)C(=O)c1c(OC)cccc1C3=O [Valrubicin]"
  Raw data [w/o Enzym]: 4201
- compound: "CCCCCCCCCCCCCCCC[N+](C)(C)CCN(Cc1ccc(OC)cc1)c1ncccn1.[Br-] [Thonzonium (bromide)]"
  Raw data [w/o Enzym]: 4603
- compound: "Cc1cc(NCCCN(C)C)c2ccc3c(ccc4c(NCCCN(C)C)cc(C)nc43)c2n1.Cl.Cl.Cl.Cl [FGI-106 (tetrahydrochloride)]"
  Raw data [w/o Enzym]: 8265
- compound: "C[n+]1ccc(-c2c3nc(c(-c4cc[n+](C)cc4)c4ccc([nH]4)c(-c4cc[n+](C)cc4)c4nc(c(-c5cc[n+](C)cc5)c5ccc2[nH]5)C=C4)C=C3)cc1.Cc1ccc(S(=O)(=O)[O-])cc1.Cc1ccc(S(=O)(=O)[O-])cc1.Cc1ccc(S(=O)(=O)[O-])cc1.Cc1ccc(S(=O)(=O)[O-])cc1 [TMPyP4 tosylate]"
  Raw data [w/o Enzym]: 698
- compound: "CC(C)(C)c1cc(/C=C(\\C#N)C(N)=S)cc(C(C)(C)C)c1O [Tyrphostin AG 879]"
  Raw data [w/o Enzym]: 4087
- compound: "O=C(O)c1ccc(-c2ccc(N(c3ccc(-c4ccc(C(=O)O)cc4)cc3)c3ccc(-c4ccc(C(=O)O)cc4)cc3)cc2)cc1 [Antibacterial agent 18]"
  Raw data [w/o Enzym]: 13337
- compound: "CN(C)C/C=C/C(=O)Nc1ccc(C(=O)N[C@@]2(C)CCC[C@@H](Nc3ncc(Cl)c(-c4c[nH]c5ccccc45)n3)C2)nc1 [Mevociclib]"
  Raw data [w/o Enzym]: 5188
- compound: "COc1cc(Cl)c(C(=O)N[C@@H](CN[C@H]2CC[C@@H](N)CC2)Cc2ccc(C#N)cc2)cc1-c1ccc(CN[C@H](C)c2ccc(C)cc2)o1 [BAY-850]"
  Raw data [w/o Enzym]: 12794
- compound: "CN(C)c1ccc(Nc2c3ccc(NC(=O)CCN4CCCC4)cc3nc3cc(NC(=O)CCN4CCCC4)ccc23)cc1.Cl.Cl.Cl [Braco-19 (trihydrochloride)]"
  Raw data [w/o Enzym]: 2391
- compound: "O.O=C1C=CC[C@@H]2[C@H]3CCCN4CCC[C@@H](CN12)[C@@H]34 [Sophocarpine (monohydrate)]"
  Raw data [w/o Enzym]: 10719
- compound: "CC(=O)[C@]1(O)Cc2c(O)c3c(c(O)c2[C@@H](O[C@H]2C[C@H](N)[C@H](O)[C@H](C)O2)C1)C(=O)c1ccccc1C3=O.Cl [Idarubicin (hydrochloride)]"
  Raw data [w/o Enzym]: 7545
